EC50 listing for selected molecules.
Target: [MCL-1]-[compound of formula (I)]—[CRBN/DDB1] (Homo sapiens, UniProt Q07820+Q96SW2)
Sequence (Q07820 whole entry): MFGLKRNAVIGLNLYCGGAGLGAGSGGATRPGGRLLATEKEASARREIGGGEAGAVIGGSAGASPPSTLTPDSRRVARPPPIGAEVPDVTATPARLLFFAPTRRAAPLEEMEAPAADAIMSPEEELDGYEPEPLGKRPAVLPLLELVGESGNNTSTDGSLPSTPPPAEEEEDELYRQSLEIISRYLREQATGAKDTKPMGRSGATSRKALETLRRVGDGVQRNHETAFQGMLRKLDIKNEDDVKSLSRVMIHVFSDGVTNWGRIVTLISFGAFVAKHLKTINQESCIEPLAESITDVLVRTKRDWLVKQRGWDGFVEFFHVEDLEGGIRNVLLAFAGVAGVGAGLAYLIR
Sequence (Q96SW2 whole entry): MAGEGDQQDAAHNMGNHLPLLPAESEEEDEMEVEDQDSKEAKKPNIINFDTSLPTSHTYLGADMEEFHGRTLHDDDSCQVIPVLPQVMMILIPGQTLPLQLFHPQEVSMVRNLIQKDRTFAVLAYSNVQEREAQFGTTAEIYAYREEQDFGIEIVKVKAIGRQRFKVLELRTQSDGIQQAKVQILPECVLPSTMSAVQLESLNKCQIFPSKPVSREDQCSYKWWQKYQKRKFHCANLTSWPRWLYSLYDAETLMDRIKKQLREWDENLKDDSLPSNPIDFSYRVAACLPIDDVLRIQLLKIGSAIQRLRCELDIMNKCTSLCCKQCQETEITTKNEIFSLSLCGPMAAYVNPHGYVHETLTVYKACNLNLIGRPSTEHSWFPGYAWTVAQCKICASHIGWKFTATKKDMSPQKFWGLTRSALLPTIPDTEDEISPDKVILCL
Sequence (Q16531 whole entry partner): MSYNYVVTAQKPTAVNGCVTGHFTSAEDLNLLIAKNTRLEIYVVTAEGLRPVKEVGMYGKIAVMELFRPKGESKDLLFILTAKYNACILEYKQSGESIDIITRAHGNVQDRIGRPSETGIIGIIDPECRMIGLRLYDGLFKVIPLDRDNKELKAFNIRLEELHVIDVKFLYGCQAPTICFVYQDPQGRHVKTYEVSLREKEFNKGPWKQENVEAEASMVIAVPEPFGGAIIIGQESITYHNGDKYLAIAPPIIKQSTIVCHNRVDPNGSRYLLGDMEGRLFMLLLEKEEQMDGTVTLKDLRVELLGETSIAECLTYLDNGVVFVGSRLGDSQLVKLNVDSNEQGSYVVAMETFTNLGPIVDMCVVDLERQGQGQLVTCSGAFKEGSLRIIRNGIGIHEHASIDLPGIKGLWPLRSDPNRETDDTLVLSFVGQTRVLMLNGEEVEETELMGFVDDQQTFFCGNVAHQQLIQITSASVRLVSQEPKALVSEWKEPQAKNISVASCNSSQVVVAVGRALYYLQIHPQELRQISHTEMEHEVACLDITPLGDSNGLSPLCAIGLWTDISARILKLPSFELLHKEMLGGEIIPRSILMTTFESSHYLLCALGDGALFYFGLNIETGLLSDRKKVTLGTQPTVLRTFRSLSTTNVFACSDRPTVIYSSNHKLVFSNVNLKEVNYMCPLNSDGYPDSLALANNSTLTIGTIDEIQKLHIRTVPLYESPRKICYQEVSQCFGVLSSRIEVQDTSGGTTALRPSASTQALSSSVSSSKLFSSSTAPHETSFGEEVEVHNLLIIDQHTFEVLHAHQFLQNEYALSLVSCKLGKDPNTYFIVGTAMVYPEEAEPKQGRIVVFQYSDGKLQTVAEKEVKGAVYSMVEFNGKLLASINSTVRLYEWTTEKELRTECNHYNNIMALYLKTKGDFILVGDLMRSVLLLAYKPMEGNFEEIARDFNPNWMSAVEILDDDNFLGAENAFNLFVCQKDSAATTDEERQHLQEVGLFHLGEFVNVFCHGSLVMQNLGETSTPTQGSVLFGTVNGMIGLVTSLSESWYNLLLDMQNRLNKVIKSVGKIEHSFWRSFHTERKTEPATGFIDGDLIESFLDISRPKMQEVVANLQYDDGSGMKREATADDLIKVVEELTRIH
Test: HTRF ternary complex formation assay
Assay type: binding
Settings: hMcl-1 and CRBN, 180 min at 25° C.; read-out: HTRF ternary complex Average pEC50 by molecule (converted)

Cc1nn(C)c(C)c1-c1c(Cl)ccc2c(CCCOc3cccc4cc(F)ccc34)c(C(=O)O)n(CCN3CCN(C(=O)Cn4c(C)nc5c(C(=O)NC6CCC(=O)NC6=O)ccc(F)c54)CC3)c12 (centres unmarked) | < 100 nM

## Input Fill in EC50 for record Cc1nn(C)c(C)c1-c1c(Cl)ccc2c(CCCOc3cccc4cc(F)ccc34)c(C(=O)O)n(CCN3CCN(C(=O)COc4cccc5c4n(C)c(=O)n5C4CCC(=O)NC4=O)CC3)c12 (centres unmarked)
## Output < 316 nM

## Input Fill in EC50 for record COc1ccc2c(c1OCC(=O)N1CCN(CCn3c(C(=O)O)c(CCCOc4cccc5cc(F)ccc45)c4ccc(Cl)c(-c5c(C)nn(C)c5C)c43)CC1)CN(C1CCC(=O)NC1=O)C2=O (centres unmarked)
## Output < 100 nM

## Input Fill in EC50 for record Cc1nn(C)c(C)c1-c1c(Cl)ccc2c(CCCOc3cccc4cc(F)ccc34)c(C(=O)O)n(CCN3CCN(C(=O)c4cc5cc(C6CCC(=O)NC6=O)ccc5n4C)CC3)c12 (centres unmarked)
## Output < 31.6 nM

## Input Fill in EC50 for record Cc1nn(C)c(C)c1-c1c(Cl)ccc2c(CCCOc3cccc4cc(F)ccc34)c(C(=O)O)n(CCN3CCN(C(=O)COc4ccc5c(c4)n(C)c(=O)n5C4CCC(=O)NC4=O)CC3)c12 (centres unmarked)
## Output < 100 nM

Reference source: patent US20260248927A1
